Measured pIC50, listed per entry.
Tested on: Escherichia coli Tat pathway
method: Live cell assay: total mCherry fluorescence of cells producing spTorA-mCherry-SsrA (primary HTS assay)
Format: cell-based
conditionNotes: Escherichia coli, read-out: IC50 (Live Cell Assay)
pIC50: −log10 of the molar value.
experimentalReadout: pIC50

> print(dat)
                                   compound                  testedsystem  reportedmeasurement
1         FC(F)(F)c1cccc(-c2cccc3cnccc23)c1  Escherichia coli Tat pathway                 4.85
2         O=[N+]([O-])c1ccc(O)c(-c2cccs2)c1  Escherichia coli Tat pathway                 5.30
3  O=[N+]([O-])c1cc([N+](=O)[O-])c2ccccc2c1Cl  Escherichia coli Tat pathway                 4.70
4              Oc1cc(Cl)ccc1Oc1ccc(Cl)cc1Cl  Escherichia coli Tat pathway                 5.70
5  N#CC(C#N)=NNc1ccccc1Br [Compound 1, [(2-bromophenyl)hydrazono]malononitrile]  Escherichia coli Tat pathway                 5.22
6  O=C(Nc1cccc(C(F)(F)F)c1)Nc1ncc([N+](=O)[O-])s1  Escherichia coli Tat pathway                 4.70

# credit: paper PMC4764201
